- assayComment: Pharmacokinetic data after intravenous and oral administration
- Format: in vivo, Wistar rats
- conditionNotes: male, plasma, iv; Wistar rat, i.v. 0.2 mg/kg
Square brackets hold non-standard residues; d marks the D form. Peptide text beside a SMILES is read from it. * marks the point of attachment. Sta = CC(C)C[C@H](N)[C@@H](O)CC(=O)O; Isovaleryl = CC(C)CC(=O)*
readoutType: half-life

{"compound": "CC(C)CC(=O)N[C@H](C(=O)N[C@H](C(=O)N[C@@H](CC(C)C)[C@@H](O)CC(=O)N[C@@H](C)C(=O)N[C@@H](CC(C)C)[C@@H](O)CC(=O)O)C(C)C)C(C)C [Pepstatin] (Isovaleryl-VV[Sta]A[Sta]-OH)", "readoutType": "half-life", "result": "~8.4 min"}
